# System: gastric acid secretion
# Assay type: in vivo, rats
# ASSAY CONDITIONS: rat, in vivo, po
For each record, write down the corresponding Therapeutic index.
Enter the number alone.

Input: Given the compound CC(=O)N1c2ccccc2-c2c([N+](=O)[O-])cnn2C1C (stereo not shown) , write its reported Therapeutic index.
Output: 32.3

Input: Return value of Therapeutic index for input "CC(=O)Nc1cnn2c(C)nc3ccccc3c12" , no commentary.
Output: 27.7

Input: Specify reported Therapeutic index for the compound shown: CC(=O)Nc1cnn2cnc3ccccc3c12 [Example 5, 1-Acetaminopyrazolo[1,5-c]quinazoline]
Output: 28.6

Input: Please supply the value of reported Therapeutic index for the item CN/C(=N/CCSCc1nc[nH]c1C)NC#N [cimetidine, reference compound]
Output: 9.4
